- assay-comment: small molecules captured by biotinylated probe aFSTL3 – biochemical, small-molecule microarray, fluorescence 635/667, stem cell growth factor project, primary screen (AID 1064);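 note: measures binding of the biotinylated anti-FSTL3 antibody to printed compounds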
- experimental-parameters: higher = more signal
observed-property: composite z-score
Numbers only.

I need composite z-score for every entry listed below, if you could help.
1. CCCCN1CC=CC23O[C@@H]4/C=C\CCCOC(=O)C4[C@H]2C(=O)N(C(CO)C(C)C)[C@@H]3C1=O (stereo not given in full)
2. C=CCOC(=O)[C@@H]1[C@H]2C(=O)O[C@H](c3ccccc3)[C@H](c3ccccc3)N2[C@H](c2ccc(OCCOC(=O)[C@H]3C[C@H]4C(=O)NCC(=O)N4[C@H]3c3cccc(OCCO)c3)cc2)[C@@]12C(=O)Nc1ccc(I)cc12
3. COc1ccc(CCNC(=O)[C@@H]2c3ccccc3C(=O)N(Cc3ccccc3OC)[C@H]2c2ccc(CO)cc2)cc1
4. CC(C)c1nc2cc(Br)ccc2c(=O)o1
5. CCN(CC)c1ccc(N2CC=CC34O[C@@H]5C=CCCOC(=O)C5[C@H]3C(=O)N(C(C)CO)[C@@H]4C2=O)cc1 (stereo not given in full)

Reply |
1. -0.1
2. -0.0708
3. -0.26
4. -0.404
5. 0.221

Give measured composite z-score for every item shown.
1. COC(=O)[C@@]1(Cc2ccc(F)cc2)[C@H]2c3cc(C(=O)N4CCCC4)n(Cc4ccccn4)c3C[C@H]2CN1C(=O)c1ccccc1
2. CC(C)OC(=O)CC(=O)CC(O)c1cccc([N+](=O)[O-])c1 (stereo not given)
3. C=C(COC)C(=O)CC[C@H](OC(=O)c1cccnc1)c1ccc(OCCO)cc1
4. Cc1ccc(S[C@]2(C(=O)NCCCN(C)C)CC(=O)N(Cc3ccccc3C(F)(F)F)[C@@H]2c2ccc(CO)cc2I)cc1
5. COc1ccc(C(=O)Nc2cccc(CN3C(=O)[C@@]4(O[C@@H](CC(=O)N5CCC[C@H]5CO)[C@H]([Si](C)(C)c5ccc(OC)cc5)[C@H]4C)c4ccccc43)c2)cc1
6. COCCCNC(=O)[C@@]1(Sc2ccc(C)cc2)CC(=O)N(Cc2ccccc2C(F)(F)F)[C@@H]1c1ccc(CO)cc1I
7. CCC(CC)C(O)C1C=CC2C(=O)N(c3ccccc3)C(=O)C2N1Nc1ccccc1F (stereo not given)
8. COCCOC(=O)N1C(=O)[C@@]2(c3cc(C#CCCO)ccc31)[C@H](C(N)=O)[C@H]1C(=O)O[C@H](c3ccccc3)[C@H](c3ccccc3)N1[C@@H]2c1ccccc1OCCO

Reply |
1. 0.116
2. 0.62
3. -0.21
4. -0.73
5. -0.226
6. 1.21
7. -0.226
8. -0.352

Dear colleague, could you send me composite z-score for each of the items below? Thanks.
1. O=C1C=C(c2ccccc2)C(=O)C2=C1CC([C@H]1Oc3ccccc3S(=O)(=O)N3CCC[C@@H]13)=CC2
2. O=C(NCC(O)CO)C1N=C(c2ccc(OCCCO)cc2)N(c2ccccc2)O1 (stereo not given)

Reply |
[-0.415, -0.279]
